All values here come from the supplement of paper PMC9233669.

Test system: biotinyl-Phe-oxazolone
method-summary: self-aminoacylation, catalytic enhancement (BFO) (fold over background); higher = more active; k-Seq, kA / k0A0; sequences stand for … in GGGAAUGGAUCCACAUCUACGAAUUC…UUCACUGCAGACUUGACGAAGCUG
Variants at the floor of the assay were thinned out.
Record t whenever self-aminoacylation is at 2 or higher; record f when lower.

{"columns": ["chain-sequence", "experimental-target", "class-assignment"],
 "data": [
  ["CGACGUCAAACAAUCGGUCUG [Fam1A.1 aminoacylation ribozyme variant]", "biotinyl-Phe-oxazolone", "t"],
  ["CCCCACUUCAAGCAAUCCGUC [Fam1B.1 aminoacylation ribozyme variant]", "biotinyl-Phe-oxazolone", "t"],
  ["CUCCUUCAAACAAUCGGUCAG [Fam1A.1 aminoacylation ribozyme variant]", "biotinyl-Phe-oxazolone", "t"],
  ["AUGCCCCUGGUCAUCGAGUGA [Fam2.1 aminoacylation ribozyme variant]", "biotinyl-Phe-oxazolone", "t"],
  ["UCACUUCAAACAAUCGGUCUG [Fam1A.1 aminoacylation ribozyme variant]", "biotinyl-Phe-oxazolone", "t"],
  ["AUUACCCUGGUCUUCGAGUCA [Fam2.1 aminoacylation ribozyme variant]", "biotinyl-Phe-oxazolone", "f"],
  ["AAGGUUGCUAAUGGUCGCAAG [Fam3.1 aminoacylation ribozyme variant]", "biotinyl-Phe-oxazolone", "f"],
  ["AAGUUUGCUAAUAGUAGCCAG [Fam3.1 aminoacylation ribozyme variant]", "biotinyl-Phe-oxazolone", "f"],
  ["CUAGUUCAAACAAUCGCUCUG [Fam1A.1 aminoacylation ribozyme variant]", "biotinyl-Phe-oxazolone", "f"],
  ["AAGUUUGCCAAUAGACGCAAG [Fam3.1 aminoacylation ribozyme variant]", "biotinyl-Phe-oxazolone", "f"],
  ["CCACACUUCAAGCAUUGGGUC [Fam1B.1 aminoacylation ribozyme variant]", "biotinyl-Phe-oxazolone", "f"],
  ["CGACUUCAAACAAUCGGUUUG [Fam1A.1 aminoacylation ribozyme variant]", "biotinyl-Phe-oxazolone", "t"],
  ["AAUUUUGCUAAUACUCGCAAG [Fam3.1 aminoacylation ribozyme variant]", "biotinyl-Phe-oxazolone", "f"],
  ["CUACUUCAAACUAUCGGUAUG [Fam1A.1 aminoacylation ribozyme variant]", "biotinyl-Phe-oxazolone", "f"]
]}

---

Test system: biotinyl-Leu-oxazolone
method-summary: self-aminoacylation, catalytic enhancement (BLO) (fold over background); higher = more active; k-Seq, kA / k0A0; sequences stand for … in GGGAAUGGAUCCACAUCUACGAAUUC…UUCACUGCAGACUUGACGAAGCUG
Variants at the floor of the assay were thinned out.
Record Fulfilled whenever self-aminoacylation is at 3 or higher; record Not fulfilled when lower.

{"columns": ["chain-sequence", "class-assignment"],
 "data": [
  ["CUACUUCAAACCAUCGGUCUC [Fam1A.1 aminoacylation ribozyme variant]", "Not fulfilled"],
  ["AAGUUGGCUAAUGGUCGCAAG [Fam3.1 aminoacylation ribozyme variant]", "Not fulfilled"],
  ["ACGUUUGCUUAUAGUCGCAAG [Fam3.1 aminoacylation ribozyme variant]", "Not fulfilled"],
  ["CUUCACCUAGGUAAUCGGGUG [Fam2.2 aminoacylation ribozyme variant]", "Not fulfilled"],
  ["AUUACCCUGGUCAUCGAGUUU [Fam2.1 aminoacylation ribozyme variant]", "Fulfilled"],
  ["AAGUUUCCUAAUAGUCGCAGG [Fam3.1 aminoacylation ribozyme variant]", "Not fulfilled"],
  ["AUUACCCUGUUAAUCGAGUGA [Fam2.1 aminoacylation ribozyme variant]", "Fulfilled"],
  ["AUUAGCCUGGUCACCGAGUGA [Fam2.1 aminoacylation ribozyme variant]", "Fulfilled"],
  ["CUACUUCCAACAAUCGGUGUG [Fam1A.1 aminoacylation ribozyme variant]", "Not fulfilled"],
  ["AUUUCCGUGGUCAUCGAGUGA [Fam2.1 aminoacylation ribozyme variant]", "Fulfilled"],
  ["CCACACUUCAAGCAACCGGGC [Fam1B.1 aminoacylation ribozyme variant]", "Fulfilled"],
  ["AUUCCCCUAGGUCAACGGGUG [Fam2.2 aminoacylation ribozyme variant]", "Fulfilled"],
  ["CCACACUUCAUGCAAUCGGUU [Fam1B.1 aminoacylation ribozyme variant]", "Not fulfilled"],
  ["AUUUGCCUGGUCAUCGAGUGA [Fam2.1 aminoacylation ribozyme variant]", "Fulfilled"]
]}
